Reported growth inhibition is given for each of the following compounds.
Assay: NCI Yeast Anticancer Drug Screen. Data for the mlh1 rad18 strain (AID 175)
Settings: S. cerevisiae mlh1 rad18 strain growth inhibition; at 5.0 µM (retest, dose inferred, filed as 0.5); active compounds read high
Description: Growth inhibition of yeast strains with defined genetic alterations is measured as a screen for potential anti-cancer activity. Selected strains with alterations in DNA damage repair or cell cycle control were exposed to compounds and growth inhibition was measured relative to vehicle treated controls. The strain used in this assay is mlh1 rad18
This is part of a sample that, as a whole, favours compounds with a hit. Of some 79,000 tested, about 15% had one in any assay.
QUANTITY NAME: growth inhibition (%)

> print(dat)
                         structure.notation  reported.value
1  O=c1ccc2c(COc3ccc(Cl)cc3Cl)c3ccc(O)cc3oc-2c1              -6
2  O=C(CCn1[nH]c(=O)c(Cl)c(Cl)c1=O)NNc1ccc([N+](=O)[O-])cc1[N+](=O)[O-]               2
3  CC[O-].CC[O-].[O-]c1ccccc1C=Nc1ccccc1.[O-]c1ccccc1C=Nc1ccccc1.[Ti+4]              23
4  CCOC(=O)C(C)(C)Oc1ccc2c(=O)cc(-c3ccccc3)oc2c1             -56
5  CC[C@]1(O)C[C@H]2[C@@H]3CCc4cc(OC)ccc4[C@H]3CC[C@]2(C)[C@H]1O              -4

====

Test: NCI Yeast Anticancer Drug Screen. Data for the rad50 strain (AID 155);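 note: 0% = growth of vehicle-only cultures of the same strain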
Conditions: S. cerevisiae rad50 strain growth inhibition; at 50.0 µM; active compounds read high
This is part of a sample that, as a whole, favours compounds with a hit. Of some 79,000 tested, about 15% had one in any assay.
Param threshold (90%) applies to growth inhibition; output yes (1) when value >= threshold, no (0) when value < threshold.

> print(dat)
                                    compound  qualitative.label
 1  CN(C)CC(CN(C)C)C(=O)c1ccc(Oc2ccc(Cl)cc2)cc1             no (0)
 2        CC(=O)/C(=C\c1ccco1)C(=O)Nc1ccccc1             no (0)
 3  CN(C)c1ccc(N=Nc2ccc3c4c(cccc24)-c2ccccc2-3)cc1            yes (1)
 4  CCCCCC(C)(O)C#CC(C)(O)CCCCC (configuration not stated)             no (0)
 5       Cc1ccc(C)c2c3c([nH]c12)-c1ccccc1CC3            yes (1)
 6        CCC[n+]1ccc(/C=N\NC(N)=S)c2ccccc21             no (0)
 7        O=C(CCl)OCC(=O)c1ccc(-c2ccccc2)cc1             no (0)
 8                       O=c1cc2cccccc-2cc1O             no (0)
 9      CCN(CCCOc1ccccc1)CCN(CC)CCCOc1ccccc1             no (0)
10       CCCCc1[nH]ccc2c(C)c3nc4ccccc4c3cc12            yes (1)

====

Assay: NCI Yeast Anticancer Drug Screen. Data for the mec2-1 strain (AID 157)
Conditions: S. cerevisiae mec2-1 strain, at 5.0 µM (retest, dose inferred, filed as 0.5), active compounds read high
About 79,000 compounds went through this panel and 15% of them were active in at least one assay; those are over-represented in the sample as a whole.
Reported growth inhibition is given for each of the following compounds.
QUANTITY NAME: growth inhibition (%)

> print(dat)
                                    compound  reported.value
 1  CC(C)N(CCO)CC(O)Cn1cnc2c(N)ncnc21 (configuration not stated) (tested in a mixture with another compound)              -9
 2                  CCCCCCC(O)(CCCCCC)CCCCCC              -3
 3         O=C1CN(CCN2CCOCC2)CC(=O)N2CCCCN12              -2
 4  OC(Cc1cccnc1)(c1ccccc1)c1ccc(Cl)cc1 (configuration not stated)              -3
 5              Cc1nnc2nc3c(nn12)c1ccccc1n3C             -49
 6                O=C1C=C(Cl)C(=O)C2=C1CCCC2              11
 7  CCCCCCCN(CCCCCCC)CC(O)Cc1cc2c(c3ccccc13)CCCC2 (configuration not stated)              17
 8    Cc1cccc(Cl)c1NC(=S)Nc1cccc(C(F)(F)F)c1               2
 9  Nc1nnc2nc(C(C(=O)c3ccccc3Cl)c3nc4nnc(N)n4[nH]c3=O)c(=O)[nH]n12               1
10     S=C(Nc1ccc(N=Nc2ccccc2)cc1)SCc1ccccc1               3
11  O=C(Nc1ccc(Cl)c(Cl)c1Cl)Oc1c(Cl)c(Cl)c(Cl)c(Cl)c1Cl              36
12           C=CCNC(=S)N/N=C(/c1ccccn1)C(C)C              -1
13  COC(=O)/C(C(C)=O)=C(\OC(C)=O)c1ccc(OC)c(OC)c1             -11
14  C=C1C(=O)OC(CCCCCCCCCCCCC)C1C(=O)O (configuration not stated)              93
15  Cc1cccc2c1Oc1ccccc1C2N1C(=O)/C(=C/c2cccs2)SC1=S (configuration not stated)             -23
16  CCC[CH2][Sn]([CH2]CCC)([O]C(=O)c1cc(OC)c(OC)cc1OC)[O]C(=O)c1cc(OC)c(OC)cc1OC              90
17  O=C1C=C(c2ccccc2)O/C1=C/C(=O)c1ccc(Cl)cc1              32
18  NC(CCl)=NCC1C2CC3CC(C2)CC1C3 (configuration not stated)              11
19  CC(=O)N1CC(C)CC2OC3(CCC4C5CCC6CC(O)CCC6(C)C5C(=O)C4C3C)C(C)C21 (configuration not stated)               1
20  C1=C(c2c(-c3ccccc3)[nH]c3ccccc23)Cc2ccccc21               0
21  CC(C)(C)c1cc(Nc2ccc([N+](=O)[O-])cc2[N+](=O)[O-])cc(C(C)(C)C)c1O               7
22  COC(=O)C1=C(C)NC(C)=C(C(=O)OC)C1c1ccc(NCc2ccccc2)c([N+](=O)[O-])c1               0

====

Assay: NCI Yeast Anticancer Drug Screen. Data for the mec2-1 strain (AID 157)
Conditions: S. cerevisiae mec2-1 strain, at 50.0 µM (retest, dose inferred, filed as 5.0), active compounds read high
About 79,000 compounds went through this panel and 15% of them were active in at least one assay; those are over-represented in the sample as a whole. Activity calls are given as the source filed them. No stated cut-off is given here; in the data, active means growth inhibition above about 70%; inactive means the rest. Where a SMILES comes first, the peptide text is derived from it. The star is where a group is joined. Trt = c1ccc(C(c2ccccc2)(c2ccccc2)*)cc1; OtBu = CC(C)(C)O*
QUANTITY NAME: growth inhibition

COMPOUND	REPORTED VALUE
CC1C(CCC(=O)O)OC2CC3C4CCC5CC(O)CCC5(C)C4CCC3(C)C21 (configuration not stated)	96% (active)
COc1ccc(CCCC(=O)O)c2c(OC)cccc12	48% (inactive)
Nc1ccccc1Sc1ccc(C(F)(F)F)cc1[N+](=O)[O-]	30% (inactive)
CCc1ccccc1NC(=O)C(C#N)C1=C(Cl)C(=O)c2ccccc2C1=O (configuration not stated)	98% (active)
CCN(CC)CCNc1c2ccccc2nc2cccc([N+](=O)[O-])c12	99% (active)
Oc1ccc(N=Nc2ccc(Cl)cc2)cc1O	98% (active)
Cc1cc(O)ccc1SC#N	32% (inactive)
C/C(=N/NC(N)=S)C(CN1CCOCC1)C(C1=C(O)c2ccccc2OC1)c1ccccc1 (configuration not stated)	28% (inactive)
C[N+]1=C(/C=C\c2ccc(O)c3ccccc23)C(C)(C)c2ccccc21	89% (active)
Clc1ccccc1/C=C/c1ccnc2ccccc12	99% (active)
Nc1ccc2ccccc2c1N=Cc1ccccc1[N+](=O)[O-]	90% (active)
O=c1ssc(=Nc2ccc(Cl)cc2)n1-c1ccc(Cl)cc1	99% (active)
O=c1oc2ccccc2c(O)c1C1=N/C(=N/N=C/c2ccc(Cl)cc2)SC1	98% (active)
CCC[C@H]1[C@H](CCC)[C@@]2(OC(=O)C3=C2CCC=C3)[C@]12OC(=O)C1=C2CCC=C1	99% (active)
CCCC(=O)N(C(=O)CCC)C1=C(Cl)C(=O)c2ccccc2C1=O	95% (active)
CC(C)(C)OC(=O)CNC(=O)C(Cc1ccccc1)NC(=O)C(N)CSC(c1ccccc1)(c1ccccc1)c1ccccc1 (stereo not drawn) (H-Cys(Trt)-Phe-Gly-OtBu; configuration not given here)	53% (inactive)
CCCCCCCCCCCCNCCNCCN	100% (active)
O=C(O)c1ccccc1NC(c1ccccc1)c1ccc2cccnc2c1O (configuration not stated)	91% (active)
CN(C)CCCNCC(=O)Nc1ccc(S(=O)(=O)c2ccc(NC(=O)CNCCCN(C)C)cc2)cc1	97% (active)
C/C=C/C/S(=N\S(=O)(=O)c1ccc(C)cc1)c1ccccc1 (configuration not stated)	88% (active)
COc1ccc(N(C)Sc2ccccc2)cc1	65% (inactive)
Cc1[nH]nc(-c2cccnc2)c1N=NN1CCOCC1	79% (active)
